TGI values, listed per item
Test system: HOP-92 NSCLC
Assay: NCI tumour cell line growth inhibition, 48 h

Reference set (4 entries):
[[record]]
molecule = "Nc1ccc(COC(O)CN2CCCCC2)cc1[N+](=O)[O-] (stereo not given)"
obsvalue = "> 100 µM"

[[record]]
molecule = "COc1cc(OC)c(OC)cc1/C=C/c1cnnc2ccccc12"
obsvalue = "> 10 µM"

[[record]]
molecule = "COc1ccc2c(c1)NC1(O)c3ccccc3C(=O)C21O (stereo not given)"
obsvalue = "> 100 µM"

[[record]]
molecule = "C=C1C(=O)O[C@H]2[C@H]1CC/C(COC(=O)CCCc1c[nH]c3ccccc13)=C\\CC[C@@]1(C)O[C@@H]21"
obsvalue = "3.46 µM"


### Prompt Tell me measured TGI for CCN(CC)c1ccc(/C=C2\CCc3ccc([N+](=O)[O-])cc3C2=O)cc1 please.
### Response > 100 µM

----------
System: SNB-75 CNS
Assay: NCI tumour cell line growth inhibition, 48 h; in the data active means GI50 below about 0.43 µM; inactive means the rest
Please answer using one outcome listed in active, inactive

Would you please look over these solved cases?
[[record]]
molecule = "CCCCCCCCCCCCCC[n+]1ccc(C(N)=O)cc1"
label = "inactive"

[[record]]
molecule = "COc1cc(C(=O)O[C@H](C(=O)NCCN(C)CCNC(=O)[C@@H](OC(=O)c2cc(OC)cc3c(C)cccc23)[C@]2(C)CO2)[C@]2(C)CO2)c2cccc(C)c2c1"
label = "active"


### Prompt Hi team, can someone confirm the assay call for C=C1C(=O)O[C@H]2[C@H]1CC/C(COC(=O)CCCc1c[nH]c3ccccc13)=C\CC[C@@]1(C)O[C@@H]21 ?
### Response inactive

### Prompt Hi team, can someone confirm the assay call for C[C@H]1CNC(=O)c2cnn3ccc(nc23)N[C@H](C)c2cc(F)ccc2O1 ?
### Response active

### Prompt Hi team, can someone confirm the assay call for COc1ccc(/C=C2\SC(=Nc3ccccc3)NC2=O)cc1 ?
### Response inactive

### Prompt Hi team, can someone confirm the assay call for Cc1c(N)nc(C(CC(N)=O)NCC(N)C(N)=O)nc1C(=O)NC(C(=O)NC(C)C(O)C(C)C(=O)NC(C(=O)NCCc1nc(-c2nc(C(=O)NCCCNC(C)c3ccccc3)cs2)cs1)C(C)O)C(OC1OC(CO)C(O)C(O)C1OC1OC(CO)C(O)C(OC(N)=O)C1O)c1cnc[nH]1 (stereo unspecified) ?
### Response inactive

----------
Tested on: M14 melanoma
Assay: NCI tumour cell line growth inhibition, 48 h
quantityMeasured: TGI

[[record]]
compound = "COC(=O)C(Cc1c[nH]c2ccccc12)NP(=O)(O)OCC1OC(n2cc(Br)c(=O)[nH]c2=O)CC1O (centres undefined)"
quantitymeasured = "TGI"
obsvalue = "> 100 µM"

[[record]]
compound = "C#CC1(O)CCC2[C@@H]3CCc4cc(Oc5nc(F)nc(-c6c7ccccc7c(SCC)n6CCC)n5)ccc4C3CC[C@@]21C (some centres undefined)"
quantitymeasured = "TGI"
obsvalue = "> 100 µM"


### Prompt Tell me measured TGI for COc1ccc(NC(=O)c2sc3nc(C)c(C(=O)/C=C/c4cccc(OC)c4)cc3c2N)cc1 please.
### Response 18.7 µM

### Prompt Tell me measured TGI for COC1=C(C)C(=O)C2=C(C1=O)C1C3CC4=C(C(=O)C(OC)=C(C)C4=O)C(CNC(=O)C(C)O)N3C(C#N)C(C2)N1C (centres undefined) please.
### Response 0.0173 µM

### Prompt Tell me measured TGI for C1CN(P2(N3CC3)=NP(N3CC3)(N3CC3)=NP(N3CC3)(N3CC3)=N2)CCO1 (centres undefined) please.
### Response > 100 µM

### Prompt Tell me measured TGI for O=c1[nH]nc(Cc2ccccc2)n1/N=C/c1cccnc1 please.
### Response > 100 µM

### Prompt Tell me measured TGI for COc1ccc2oc(-c3ccc(OC)c(OC)c3OC)cc(=O)c2c1 please.
### Response > 100 µM

### Prompt Tell me measured TGI for C=CCN1/C(=C2\SC(=S)N(c3ccc(C)cc3)C2=O)Sc2c1ncn(C)c2=O please.
### Response > 100 µM

### Prompt Tell me measured TGI for NCCNC(=O)c1cccc2cc3ccccc3nc12 please.
### Response 11 µM
